system: MCF7; experiment: Cytotoxicity against human MCF7 cells assessed as reduction in cell viability incubated for 48 hrs by MTT assay; assay type: functional, cell-based; settings: Homo sapiens, MCF7, 48 h; read-out: IC50
Measured IC50, listed per entry for reference.
RESULT_TYPE: IC50 (µM)

- MOLECULE: "O=C1C=C(Nc2nccs2)C(=O)c2ccccc21"
  RESULT_TYPE: "IC50"
  QUANTITY_UNIT: "µM"
  VALUE_REPORTED: 6.4
- MOLECULE: "CN1CCN(CCCNC2=CC(=O)c3ccccc3C2=O)CC1"
  RESULT_TYPE: "IC50"
  QUANTITY_UNIT: "µM"
  VALUE_REPORTED: 10.4
- MOLECULE: "Cc1ccc(NC2=CC(=O)c3ccccc3C2=O)cc1C"
  RESULT_TYPE: "IC50"
  QUANTITY_UNIT: "µM"
  VALUE_REPORTED: 5.3
- MOLECULE: "O=C1C=C(Nc2ccc(F)cc2)C(=O)c2ccccc21"
  RESULT_TYPE: "IC50"
  QUANTITY_UNIT: "µM"
  VALUE_REPORTED: 4.1
- MOLECULE: "COc1ccc2c3c([nH]c2c1)C(=O)c1ccccc1C3=O"
  RESULT_TYPE: "IC50"
  QUANTITY_UNIT: "µM"
  VALUE_REPORTED: 7
- MOLECULE: "O=C1c2ccccc2C(=O)c2c1[nH]c1ccc(Cl)cc21"
  RESULT_TYPE: "IC50"
  QUANTITY_UNIT: "µM"
  VALUE_REPORTED: 4.5
- MOLECULE: "CCC(C)c1ccc(NC2=CC(=O)c3ccccc3C2=O)cc1 (configuration not stated)"
  RESULT_TYPE: "IC50"
  QUANTITY_UNIT: "µM"
  VALUE_REPORTED: 4.2
- MOLECULE: "COc1cccc2c1C(=O)C=C(Nc1ccccc1)C2=O"
  RESULT_TYPE: "IC50"
  QUANTITY_UNIT: "µM"
  VALUE_REPORTED: 6
- MOLECULE: "COc1ccc2[nH]c3c(c2c1)C(=O)c1ccccc1C3=O"
  RESULT_TYPE: "IC50"
  QUANTITY_UNIT: "µM"
  VALUE_REPORTED: 8
- MOLECULE: "Cc1ccc(NC2=CC(=O)c3ccccc3C2=O)cc1"
  RESULT_TYPE: "IC50"
  QUANTITY_UNIT: "µM"
  VALUE_REPORTED: 6.4
- MOLECULE: "O=C1C=C(Nc2ccccc2)C(=O)c2ccccc21"
  RESULT_TYPE: "IC50"
  QUANTITY_UNIT: "µM"
  VALUE_REPORTED: 4.4
- MOLECULE: "O=C1C=C(Nc2cccc3ccccc23)C(=O)c2ccccc21"
  RESULT_TYPE: "IC50"
  QUANTITY_UNIT: "µM"
  VALUE_REPORTED: 3.1

----------
Measured Activity, listed per entry for reference.
test system: MDA-MB-231; assay: Cytotoxicity against human MDA-MB-231 cells assessed as apoptotic nuclei at 2 uM by DAPI staining based fluorescence microscopic analysis (reference value: 4.17 to 14.29%); type: functional
RESULT_TYPE: Activity

- SMILES_STRUCTURE: "O=C1C=C(Nc2cccc3ccccc23)C(=O)c2ccccc21"
  RESULT_TYPE: "Activity"
  VALUE_REPORTED: "28.57%"
- SMILES_STRUCTURE: "O=C1c2cccc(O)c2C(=O)c2c1[nH]c1ccccc21"
  RESULT_TYPE: "Activity"
  VALUE_REPORTED: "36.36%"
- SMILES_STRUCTURE: "CN(C1=CC(=O)c2ccccc2C1=O)c1ccccc1"
  RESULT_TYPE: "Activity"
  VALUE_REPORTED: "56.41%"
- SMILES_STRUCTURE: "COc1cccc(NC2=CC(=O)c3ccccc3C2=O)c1"
  RESULT_TYPE: "Activity"
  VALUE_REPORTED: "54.55%"
